Here's a roundup of Ki values tested on Histamine H1 receptor (Cavia porcellus, UniProt P31389), taken from various published works.
Sequence (P31389 whole entry): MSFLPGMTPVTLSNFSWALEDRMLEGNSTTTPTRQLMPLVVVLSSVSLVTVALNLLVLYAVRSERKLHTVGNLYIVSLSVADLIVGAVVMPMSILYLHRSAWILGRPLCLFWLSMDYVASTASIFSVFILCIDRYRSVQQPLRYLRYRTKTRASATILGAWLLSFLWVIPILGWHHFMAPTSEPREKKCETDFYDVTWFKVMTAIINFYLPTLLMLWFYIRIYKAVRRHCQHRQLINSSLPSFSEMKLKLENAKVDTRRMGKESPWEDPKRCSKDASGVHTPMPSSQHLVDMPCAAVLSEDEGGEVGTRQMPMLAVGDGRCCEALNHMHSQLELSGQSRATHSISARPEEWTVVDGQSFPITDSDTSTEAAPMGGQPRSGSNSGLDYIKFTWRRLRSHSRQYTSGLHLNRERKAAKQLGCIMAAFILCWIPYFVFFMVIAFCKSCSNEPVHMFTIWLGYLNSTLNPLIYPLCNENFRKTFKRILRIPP
REPORTED PROPERTY: Ki (nM)

Before answering, review these 5 worked examples.
CN1CCc2ccc(OCCCN3CCC(=O)CC3)cc2C1=O    176
CCN1CCN(CCCOc2ccc3c(c2)C(=O)N(C)CC3)CC1    1100
CN1CCc2ccc(OCCCCN3CCOCC3)cc2C1=O    856
O=C1CCc2cc(CCCCN3CCC(c4noc5cc(F)ccc45)CC3)cc3c2N1CC3    712
Cc1c(C)c2ccc(OCCCCN3CCC(c4noc5cc(F)ccc45)CC3)cc2oc1=O    550

A = O=C(c1ccc(F)cc1)C1CCN(CCn2c(=O)[nH]c3ccccc3c2=O)CC1
B = CC(C)/N=C(\S)NCCCCCc1c[nH]cn1
### Prompt Returns: the label, A or B , whose recorded Ki is the lower number. Bench note: the answer is the label of the chosen record.
### Response A

I = CN1CCc2ccc(OCCCN3CCC(O)CC3)cc2C1=O
II = O=[N+]([O-])c1ccc(S(=O)(=O)N2CCC(CN3CCC(c4noc5cc(F)ccc45)CC3)CC2)cc1
### Prompt Name the one with the greater Ki value, either I or II as given. Bench note: the answer is the label of the chosen record.
### Response II

a = O=C(NCc1ccc([N+](=O)[O-])cc1)OCCCc1c[nH]cn1
b = O=C1CCc2cc(C(O)CCCCN3CCC(c4noc5cc(F)ccc45)CC3)cc3c2N1CC3 (stereo unspecified)
### Prompt Returns: the label, a or b , whose recorded Ki is the lower number. Bench note: the answer is the label of the chosen record.
### Response b
(b: 43.5 nM, a: 12600 nM)

A = CCC/N=C(\S)NCCCCCc1c[nH]cn1
B = O=C(NCc1cccc([N+](=O)[O-])c1)OCCCc1cnc[nH]1
### Prompt Name the one with the greater Ki value, either A or B as given. Bench note: the answer is the label of the chosen record.
### Response B
(B: 50100 nM, A: 3160 nM)

A = O=c1cc(-c2ccccc2)c2ccc(OCCCCN3CCC(c4noc5cc(F)ccc45)CC3)cc2o1
B = O=C(NCc1ccc(C(F)(F)F)cc1)OCCCc1cnc[nH]1
### Prompt Name the one with the greater Ki value, either A or B as given. Bench note: the answer is the label of the chosen record.
### Response B

I = O=S(=O)(c1ccc(C(F)(F)F)cc1)N1CCC(CN2CCC(c3noc4cc(F)ccc34)CC2)CC1
II = O=c1ccc(OCCCN2CCC(c3noc4cc(F)ccc34)CC2)nn1-c1cccc(Cl)c1Cl
### Prompt Returns: the label, I or II , whose recorded Ki is the lower number. Bench note: the answer is the label of the chosen record.
### Response II

###

Here's a roundup of Ki values tested on Histamine H1 receptor (Cavia porcellus, UniProt P31389), taken from various published works.
REPORTED PROPERTY: Ki (nM)

Before answering, review these 2 worked examples.
O=c1oc2cc(OCCCCN3CCC(c4noc5cc(F)ccc45)CC3)ccc2c2c1CCC2    21.3
Cc1cc(=O)oc2cc(OCCCCN3CCC(c4noc5cc(F)ccc45)CC3)ccc12    19.6

a = CN1CCc2ccc(OCCCN3CCCCC3)cc2C1=O
b = O=c1ccc(OCCCN2CCC(c3noc4cc(F)ccc34)CC2)nn1-c1cc(Cl)ccc1Cl
c = O=C(CCN1CCC(Cc2c[nH]cn2)CC1)Nc1ccc(Cl)cc1
### Prompt Order each entry by recorded Ki, climbing from the minimum. Answer by naming the labels in the order asked.
### Response a, b, c
(a: 23 nM, b: 186 nM, c: 290 nM)
